Origin of values: paper PMC6213020

target: PPAR-α (Homo sapiens); assay: TR-FRET LanthaScreen PPAR coactivator recruit assay, PPAR-α (PGC1a peptide)
Sequence (Q07869 239-466 limits assumed): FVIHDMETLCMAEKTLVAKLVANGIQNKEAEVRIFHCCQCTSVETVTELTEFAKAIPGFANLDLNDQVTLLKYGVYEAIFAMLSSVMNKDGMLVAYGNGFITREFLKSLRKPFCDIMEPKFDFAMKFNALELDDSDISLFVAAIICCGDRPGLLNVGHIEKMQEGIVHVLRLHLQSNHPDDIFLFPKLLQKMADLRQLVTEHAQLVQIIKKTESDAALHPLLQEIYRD
outcome_measure: pEC50
Reminder that pEC50 means the negative base-10 logarithm of the concentration expressed in mol/L.

Which pEC50 is listed for O=C(COc1ccc2c(ccn2Cc2ccccc2C(=O)O)c1)Nc1ccc(Cl)cc1Cl [Compound 12] ?
5.41

Moving on to the next molecule.
I have this molecule here, O=C(COc1ccc2ccn(Cc3ccccc3C(=O)O)c2c1)Nc1ccc(Cl)cc1Cl [Compound 13] , and I need its recorded pEC50.
4.77

* * *

biological target: PPAR-α (Homo sapiens, UniProt Q07869); construct: host or cells: CV-1; assay: cell-based PPAR transactivation (luciferase) assay, PPAR-α; conditions: 24 h; compounds 10 µM; relative to maximum activation with GW7647 (10 µM); PPAR-Luc in CV-1 cells; read-out: % max PPAR-α
Sequence (Q07869 whole entry, species assumed): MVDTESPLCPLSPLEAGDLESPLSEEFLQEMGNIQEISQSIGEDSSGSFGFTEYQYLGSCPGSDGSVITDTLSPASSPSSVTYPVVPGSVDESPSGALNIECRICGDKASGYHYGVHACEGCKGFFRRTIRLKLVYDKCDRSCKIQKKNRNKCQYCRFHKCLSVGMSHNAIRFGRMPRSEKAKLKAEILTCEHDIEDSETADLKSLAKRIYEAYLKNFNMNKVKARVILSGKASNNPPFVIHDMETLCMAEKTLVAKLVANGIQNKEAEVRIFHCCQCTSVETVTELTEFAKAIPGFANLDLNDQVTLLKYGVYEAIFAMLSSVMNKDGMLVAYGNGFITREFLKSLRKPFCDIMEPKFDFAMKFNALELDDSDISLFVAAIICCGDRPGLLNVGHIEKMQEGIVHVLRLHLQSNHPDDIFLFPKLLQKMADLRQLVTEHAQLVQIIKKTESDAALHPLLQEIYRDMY
outcome_measure: activation at 10 µM (%)
# unit: % | format: bare number

Sample answers from the record:
Form: Entry = CC(C)=CCc1cn(Cc2ccccc2C(=O)O)c2cc(OCC(=O)Nc3ccc(Cl)cc3Cl)ccc12 | System = PPAR-α (Homo sapiens, UniProt Q07869) | activation at 10 µM = ____
-2.3

Now this one: O=C(COc1ccc2c(ccn2Cc2ccccc2C(=O)O)c1)Nc1ccc(Cl)cc1Cl
105

# iterate: O=C(COc1ccc2c(ccn2Cc2cccc(C(=O)O)c2)c1)Nc1ccc(Cl)cc1Cl
10.3

Now try O=C(COc1ccc2c(c1)c(Cc1ccccc1)cn2Cc1ccccc1C(=O)O)Nc1ccc(Cl)cc1Cl .
23.8

Can you handle O=C(COc1ccc2ccn(Cc3ccc(C(=O)O)cc3)c2c1)Nc1ccc(Cl)cc1Cl next?
-14.4

As a next step, examine the compound that follows.
Record lookup: for PPAR-α (Homo sapiens, UniProt Q07869), what activation at 10 µM belongs to O=C(O)Cc1c[nH]c2cc(OCC(=O)Nc3ccc(Cl)cc3Cl)ccc12 ?
1.12

* * *

target: PPAR-γ (Homo sapiens); construct: purchased Invitrogen / Thermo Fisher Scientific (assay service); assay: TR-FRET LanthaScreen PPAR coactivator recruit assay, PPAR-γ (TRAP220/DRIP2 peptide); type: biochemical; details: TR-FRET coactivator recruit assay; read-out: EC50 PPAR-γ
Sequence (P37231 238-503 limits assumed): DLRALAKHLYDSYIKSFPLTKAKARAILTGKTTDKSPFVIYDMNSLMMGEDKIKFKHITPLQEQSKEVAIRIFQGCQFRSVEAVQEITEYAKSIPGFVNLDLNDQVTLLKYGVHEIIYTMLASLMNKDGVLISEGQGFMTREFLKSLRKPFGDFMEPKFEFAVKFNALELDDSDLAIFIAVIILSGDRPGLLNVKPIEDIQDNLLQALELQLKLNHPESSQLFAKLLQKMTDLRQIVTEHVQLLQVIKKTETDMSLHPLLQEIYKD
outcome_measure: EC50 (nM)
Please state the figure in nM; there is no need to write the unit.

See these solved cases before continuing.
I have this molecule here, O=C(COc1ccc2ccn(Cc3cccc(C(=O)O)c3)c2c1)Nc1ccc(Cl)cc1Cl , and I need its recorded EC50.
32.6

Next entry: O=C(COc1ccc2c(ccn2Cc2ccccc2C(=O)O)c1)Nc1ccc(Cl)cc1Cl
1.96

For the next question, use this molecule.
# get_value(readout='EC50', item= O=C(COc1ccc2ccn(Cc3ccccc3C(=O)O)c2c1)Nc1ccc(Cl)cc1Cl )
571

* * *

molecular target: PPAR-δ (Homo sapiens, UniProt Q03181); construct: host or cells: HEK293t; experiment: cell-based PPAR transactivation (luciferase) assay, PPAR-δ; conditions: compounds 10 µM; relative to maximum activation with GW0742 (10 μM); PPAR-Luc in HEK293t cells; read-out: % max PPAR-δ
Sequence (Q03181 whole entry, species assumed): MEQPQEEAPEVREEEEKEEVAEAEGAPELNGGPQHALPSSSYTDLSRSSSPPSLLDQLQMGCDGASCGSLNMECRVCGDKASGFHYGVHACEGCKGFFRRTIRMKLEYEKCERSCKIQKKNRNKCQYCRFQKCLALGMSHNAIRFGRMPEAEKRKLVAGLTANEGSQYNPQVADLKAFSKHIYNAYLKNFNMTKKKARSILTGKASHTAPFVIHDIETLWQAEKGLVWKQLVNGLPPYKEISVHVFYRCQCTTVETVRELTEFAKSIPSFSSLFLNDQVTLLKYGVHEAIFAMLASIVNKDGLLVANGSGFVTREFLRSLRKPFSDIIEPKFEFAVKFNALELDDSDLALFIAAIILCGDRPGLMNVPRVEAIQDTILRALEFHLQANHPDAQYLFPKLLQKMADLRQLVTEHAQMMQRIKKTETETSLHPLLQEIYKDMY
Answer Criterion not met if activation at 10 µM is under 40%, and Criterion met if it is 40% or more.

Would you please look over these solved cases?
# check: activation at 10 µM of CC(C)=CCc1cn(Cc2ccccc2C(=O)O)c2ccc(OCC(=O)Nc3ccc(Cl)cc3Cl)cc12 is greater than or equal to 40%
Criterion not met

For O=C(COc1ccc2c(Cc3ccccc3)cn(Cc3ccccc3C(=O)O)c2c1)Nc1ccc(Cl)cc1Cl then?
Criterion not met

And the next one, O=C(COc1ccc2ccn(Cc3ccc(C(=O)O)cc3)c2c1)Nc1ccc(Cl)cc1Cl ?
Criterion not met

Please do the same for O=C(COc1ccc2ccn(Cc3cccc(C(=O)O)c3)c2c1)Nc1ccc(Cl)cc1Cl as well.
Criterion met

// query: O=C(COc1ccc2c(ccn2Cc2ccccc2C(=O)O)c1)Nc1ccc(Cl)cc1Cl
Criterion met

Could you do the same for O=C(O)Cc1cn(Cc2ccccc2)c2cc(OCC(=O)Nc3ccc(Cl)cc3Cl)ccc12 , please?
Criterion met

Can you handle O=C(O)Cc1cn(Cc2ccccc2)c2ccc(OCC(=O)Nc3ccc(Cl)cc3Cl)cc12 next?
Criterion met

Follow-up item: O=C(COc1ccc2c(ccn2Cc2ccc(C(=O)O)cc2)c1)Nc1ccc(Cl)cc1Cl
Criterion not met

Next compound up: O=C(O)Cc1c[nH]c2ccc(OCC(=O)Nc3ccc(Cl)cc3Cl)cc12
Criterion not met

Continuing:
Could you please find out whether O=C(COc1ccc2c(ccn2Cc2cccc(C(=O)O)c2)c1)Nc1ccc(Cl)cc1Cl has activation at 10 µM that meets 40% or exceeds it?
Criterion not met
